From: PubChem BioAssay AID652154

- Procedure details: PAX8 transcriptional activity inhibition in RMG-I – RMG-I cells, luciferase, single concentration, primary screen (AID 652154);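 also: luciferase light reporting Pax8 driven TPO promoter activity; plate controls were median of neutral control wells for no effect and mitoxantrone controls for full effect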
- Condition: RMG-I TPO-luciferase reporter, SteadyGlo, 24 h; at 12.6 µM; hits give high values
Hit rate of the full screen: of about 360,000 compounds, about 4,200 (1.2%) were called active. The list comes from a sample in which actives are over-represented; it also holds close analogues and randomly drawn compounds.
Overview of recorded inhibition for various compounds
Dear colleague, please return just the value in %, with no unit written.

Reference set, count: 6
Compound | inhibition, %
CCS(=O)(=O)Nc1ccc2c(c1)C(=O)N(C)[C@@H]1CC[C@@H](CC(=O)NC)O[C@H]1CO2 | -18
C/C=C/c1ccc([C@@H]2[C@H](CO)N(CC3CCCC3)C23CN(C(=O)CC)C3)cc1 | 18.8
CC(=O)c1ccc(S(=O)(=O)N2CCN(C(=O)/C=C/c3ccc4ccccc4n3)CC2)cc1 | 79.4
CC(=O)c1ccc(S(=O)(=O)N2CCC(Oc3ccc(-n4cnnn4)cc3)CC2)cc1 | -37.6
Cc1ccc(NC(=O)Cn2nnc(C(=O)NCc3ccco3)c2N)c(C)c1 | 8.75
CC1=C(C(=O)OC2CCCCC2)C(c2cccnc2)n2ncnc2N1 (configuration not stated) | 143

// switching to the query compound
stdin: Looking for the measured inhibition of CC1=C(C(=O)OC2CCCCC2)C(c2ccccc2F)NC(=O)N1 (configuration not stated) , can you help?
stdout: 23.9

---

- Procedure details: PAX8 transcriptional activity inhibition in RMG-I – RMG-I cells, luciferase, single concentration, primary screen (AID 652154);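 also: luciferase light reporting Pax8 driven TPO promoter activity; plate controls were median of neutral control wells for no effect and mitoxantrone controls for full effect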
- Condition: RMG-I TPO-luciferase reporter, SteadyGlo, 24 h; at 12.6 µM
The whole screen tested about 360,000 compounds, of which about 4,200 (1.2%) were called active.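 Rule for the calls: active = mean replicate inhibition at least 60% with every replicate also reaching 60%; inconclusive = only one of the two criteria is met; inactive = mean below 60% and not all replicates reaching 60%.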 The sample holds actives, similar compounds and a random draw of the others, so the mix is not that of the screen.
Give your call using only these classes: Y = active, N = inactive

stdin: Write down the call the test reported for this compound. Item: C[C@H](CO)N1C[C@H](C)[C@H](CN(C)Cc2ccc(C(F)(F)F)cc2)OCCCC[C@H](C)Oc2ccc(NS(=O)(=O)c3ccc(Cl)cc3)cc2C1=O
stdout: N

stdin: Quick one: CC(C)NC(=O)Nc1ccc2c(c1)C(=O)N([C@@H](C)CO)C[C@@H](C)[C@H](CN(C)Cc1ccc(C(=O)O)cc1)O2
stdout: N

stdin: Also check C[C@@H]1CCCCO[C@H](CN(C)Cc2ccncc2)[C@@H](C)CN([C@H](C)CO)C(=O)c2cc(NC(=O)CCCN(C)C)ccc2O1
stdout: N

stdin: Another compound to check: COc1cccc(/C=N/Nc2ncc(C(F)(F)F)cc2Cl)c1O
stdout: Y

stdin: Next up: COc1ccc(S(=O)(=O)Nc2cccc3c2O[C@@H](CN(C)Cc2ccc(-c4ccccc4)cc2)[C@H](C)CN([C@H](C)CO)C3=O)cc1
stdout: N

stdin: Next record, please: CC(=O)NC[C@H]1[C@H](c2ccc(C3=CCCCC3)cc2)[C@@H](CO)N1C(=O)NC(C)C
stdout: N

---

- Procedure details: PAX8 transcriptional activity inhibition in RMG-I – RMG-I cells, luciferase, single concentration, primary screen (AID 652154);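 also: luciferase light reporting Pax8 driven TPO promoter activity; plate controls were median of neutral control wells for no effect and mitoxantrone controls for full effect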
- Condition: RMG-I TPO-luciferase reporter, SteadyGlo, 24 h; at 12.6 µM; hits give high values
The campaign covered roughly 360,000 compounds. About 4,200 (1.2%) were called active. What follows is part of a selection rich in actives, with near analogues and random picks from the rest.
Outcome measure: inhibition (%)
Only the number, expressed in %, is required.

These recorded examples may help you get a feel for the data.
Smiles code | Units label | Endpoint value
O=C(OCC(=O)N1CCN(C(=O)c2ccco2)CC1)c1ccc(Cl)c(Cl)c1 | % | 6.78
C[C@@H]1CN([C@H](C)CO)C(=O)Cc2cc(NC(=O)CCN3CCOCC3)ccc2O[C@@H]1CN(C)S(C)(=O)=O | % | -16.5
CN1C(=O)c2cc(NC(=O)c3cscn3)ccc2OC[C@@H]2O[C@H](CC(=O)N3CCCCC3)CC[C@H]21 | % | -16.1
NC1=CC(=O)C(=O)c2cccnc21 | % | 117

stdin: // query inhibition value for entry CO[C@@H]1CC[C@H]2CCN(C)C(=O)C[C@@H](c3ccccc3)CN(C)C(=O)c3cc(C#N)ccc3OC[C@@H]1O2
stdout: 5.74

stdin: Moving on to the next compound: C[C@@H]1CN([C@@H](C)CO)C(=O)c2cc(NS(=O)(=O)c3ccccc3)ccc2O[C@H]1CN(C)CC1CC1
stdout: -3.75

stdin: Can you check O=C(c1ccncc1)N1C[C@@H]2[C@H](c3ccccc31)[C@H](CO)N2C(=O)c1ccncc1 next?
stdout: -12.9

stdin: Param item: O=C(N[C@@H]1CC[C@@H](CCNS(=O)(=O)c2ccccc2Cl)O[C@@H]1CO)c1ccccc1
stdout: -1.25
